Source: patent US20210238170A1

tested.system: human SGLT1 (Homo sapiens)
Construct: expressed in transfected cells
assay.summary: SGLT1 in vitro assay: Na-dependent 14C-AMG uptake in CHO-K1 cells stably expressing human SGLT1
Format: cell-based
test.context: @ 0.3 μM; CHO-K1 cells stably expressing human SGLT1; 14C-AMG uptake; read-out: SGLT1 % Inh @ 0.3 μM
# key: entry, value: inhibition at 0.3 µM
measured.endpoint: inhibition at 0.3 µM (%)

- molecule: "Cc1c(Cc2cc3ccccc3s2)cc([C@@H]2O[C@H](CO)C(F)(F)[C@H](O)[C@H]2O)c(O)c1C [Compound 60]"
  tested.system: "human SGLT1 (Homo sapiens)"
  quantitative.result: 83.4
- molecule: "COc1cc(C)c(Cc2ccc(Cl)s2)cc1[C@@H]1O[C@H](CO)C(F)(F)[C@H](O)[C@H]1O [Compound 112]"
  tested.system: "human SGLT1 (Homo sapiens)"
  quantitative.result: 43.5
- molecule: "COc1cc(Cl)c(Cc2ccc(C)s2)cc1[C@@H]1O[C@H](CO)C(F)(F)[C@H](O)[C@H]1O [Compound 165]"
  tested.system: "human SGLT1 (Homo sapiens)"
  quantitative.result: 54.7
- molecule: "CCc1cc(OC)c([C@@H]2O[C@H](CO)C(F)(F)[C@H](O)[C@H]2O)cc1Cc1ccc(C2CC2)cc1 [Compound 151]"
  tested.system: "human SGLT1 (Homo sapiens)"
  quantitative.result: 52.1
- molecule: "COc1cc(Cl)c(Cc2ccc3c(c2)OCC3)cc1[C@@H]1O[C@H](CO)C(F)(F)[C@H](O)[C@H]1O [Compound 115]"
  tested.system: "human SGLT1 (Homo sapiens)"
  quantitative.result: 50.8
- molecule: "OC[C@H]1O[C@@H](c2cc(Cc3ccc(Cl)s3)c(Cl)cc2O)[C@H](O)[C@@H](O)C1(F)F [Compound 167]"
  tested.system: "human SGLT1 (Homo sapiens)"
  quantitative.result: 75.7
- molecule: "COc1ccc(Cc2cc([C@@H]3O[C@H](CO)C(F)(F)[C@H](O)[C@H]3O)c(O)cc2C)cc1 [Compound 108]"
  tested.system: "human SGLT1 (Homo sapiens)"
  quantitative.result: 66.6

###

tested.system: human SGLT1 (Homo sapiens, UniProt P13866)
Construct: expressed in transfected cells
Sequence (P13866 whole entry): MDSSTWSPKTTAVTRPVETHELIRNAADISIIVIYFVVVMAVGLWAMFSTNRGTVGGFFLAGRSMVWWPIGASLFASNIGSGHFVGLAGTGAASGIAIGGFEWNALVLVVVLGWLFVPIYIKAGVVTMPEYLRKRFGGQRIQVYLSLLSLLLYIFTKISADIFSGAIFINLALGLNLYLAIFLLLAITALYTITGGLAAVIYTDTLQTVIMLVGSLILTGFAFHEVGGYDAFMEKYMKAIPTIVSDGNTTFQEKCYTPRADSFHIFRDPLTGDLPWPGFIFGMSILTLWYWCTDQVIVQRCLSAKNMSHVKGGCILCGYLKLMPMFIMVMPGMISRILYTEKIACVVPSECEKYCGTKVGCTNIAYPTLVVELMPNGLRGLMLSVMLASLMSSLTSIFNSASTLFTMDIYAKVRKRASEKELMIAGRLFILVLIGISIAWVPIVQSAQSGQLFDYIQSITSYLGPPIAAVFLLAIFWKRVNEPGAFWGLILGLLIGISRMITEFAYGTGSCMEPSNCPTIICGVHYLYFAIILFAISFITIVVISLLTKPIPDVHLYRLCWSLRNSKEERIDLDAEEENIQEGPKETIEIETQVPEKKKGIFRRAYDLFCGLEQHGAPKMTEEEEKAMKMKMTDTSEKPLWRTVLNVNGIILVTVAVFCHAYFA
assay.summary: SGLT1 in vitro assay: Na-dependent 14C-AMG uptake in CHO-K1 cells stably expressing human SGLT1
Assay type: cell-based
test.context: @ 0.3 μM; CHO-K1 cells stably expressing human SGLT1; 14C-AMG uptake; read-out: SGLT1 % Inh @ 0.3 μM
Method: Biological Example 1: SGLT1 and SGLT2 In Vitro Assays The ability of the compounds of formula (I) of the present invention to treat an SGLT-mediated condition was determined using the following procedures: […] Inhibition of SGLT1 and SGLT2 activity was assessed in CHO K1 cells stably expressing either human SGLT1 or SGLT2, using the SGLT specific glucose analog methyl-glucopyranoside (Sigma Catalog No. M-9376). […] Plates were counted in a TopCount (Packard, Meriden, Conn.) […]
# key: entry, value: inhibition at 0.3 µM

- substance.smiles: "OC[C@H]1O[C@@H](c2cc(Cc3ccc(C4CC4)cc3)c(Cl)cc2O)[C@H](O)[C@@H](O)C1(F)F"
  inhibition at 0.3 µM (%): 68.7
- substance.smiles: "CCc1ccc(Cc2cc([C@@H]3O[C@H](CO)C(F)(F)[C@H](O)[C@H]3O)c(O)cc2OC)cc1"
  inhibition at 0.3 µM (%): 78.1
- substance.smiles: "COc1cc(Cl)c(Cc2cc3ccccc3s2)cc1[C@@H]1O[C@H](CO)C(F)(F)[C@H](O)[C@H]1O"
  inhibition at 0.3 µM (%): 56.6
- substance.smiles: "Cc1cc(O)c([C@@H]2O[C@H](CO)C(F)(F)[C@H](O)[C@H]2O)cc1Cc1ccc(OCF)cc1"
  inhibition at 0.3 µM (%): 67.7
- substance.smiles: "Cc1cc(OCC#N)c([C@@H]2O[C@H](CO)C(F)(F)[C@H](O)[C@H]2O)cc1Cc1cc2ccccc2s1"
  inhibition at 0.3 µM (%): 54
- substance.smiles: "Cc1cc(O)c([C@@H]2O[C@H](CO)C(F)(F)[C@H](O)[C@H]2O)cc1Cc1ccc(-c2cccc(F)n2)s1"
  inhibition at 0.3 µM (%): 61.2
- substance.smiles: "CCc1cc(O)c([C@@H]2OC3(CC3)C(F)(F)[C@H](O)[C@H]2O)cc1Cc1ccc2c(c1)OCCO2"
  inhibition at 0.3 µM (%): 73

###

# key: entry, value: inhibition at 0.3 µM
tested.system: human SGLT2 (Homo sapiens, UniProt P31639)
Construct: expressed in transfected cells
Sequence (P31639 1-672): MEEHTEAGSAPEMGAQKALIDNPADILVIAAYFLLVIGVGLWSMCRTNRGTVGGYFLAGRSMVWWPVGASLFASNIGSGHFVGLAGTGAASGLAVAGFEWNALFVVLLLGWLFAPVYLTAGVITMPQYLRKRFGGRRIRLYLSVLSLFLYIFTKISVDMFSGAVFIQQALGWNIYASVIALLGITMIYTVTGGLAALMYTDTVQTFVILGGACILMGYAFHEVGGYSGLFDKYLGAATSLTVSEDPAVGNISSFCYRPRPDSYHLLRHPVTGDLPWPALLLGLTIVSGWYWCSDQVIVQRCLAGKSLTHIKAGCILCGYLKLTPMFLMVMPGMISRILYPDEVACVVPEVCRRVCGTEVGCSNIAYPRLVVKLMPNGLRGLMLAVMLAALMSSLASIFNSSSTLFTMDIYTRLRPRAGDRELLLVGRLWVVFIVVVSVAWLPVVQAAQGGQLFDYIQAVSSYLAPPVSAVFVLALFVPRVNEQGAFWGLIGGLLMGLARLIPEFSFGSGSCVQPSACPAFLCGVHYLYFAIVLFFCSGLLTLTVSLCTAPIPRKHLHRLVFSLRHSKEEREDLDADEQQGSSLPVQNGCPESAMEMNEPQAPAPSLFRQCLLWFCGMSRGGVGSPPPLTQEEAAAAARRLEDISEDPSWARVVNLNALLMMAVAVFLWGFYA
assay.summary: SGLT2 in vitro assay: Na-dependent 14C-AMG uptake in CHO-K1 cells stably expressing human SGLT2
Type: cell-based
test.context: @ 0.3 μM; CHO-K1 cells stably expressing human SGLT2; 14C-AMG uptake; read-out: SGLT2 % Inh @ 0.3 μM

- substance.smiles: "COc1cc(Cl)c(Cc2ccc3c(c2)OCCO3)cc1[C@@H]1O[C@H](CO)C(F)(F)[C@H](O)[C@H]1O"
  inhibition at 0.3 µM (%): 78.1
- substance.smiles: "COc1ccc(Cc2cc([C@@H]3O[C@H](CO)C(F)(F)[C@H](O)[C@H]3O)c(O)cc2Cl)cc1"
  inhibition at 0.3 µM (%): 87.4
- substance.smiles: "Cc1ccc(Cc2cc([C@@H]3O[C@H](CO)C(F)(F)[C@H](O)[C@H]3O)c(O)cc2Cl)s1"
  inhibition at 0.3 µM (%): 87.6
- substance.smiles: "Cc1ccc(Cc2cc([C@@H]3O[C@H](CO)C(F)(F)[C@H](O)[C@H]3O)c(O)cc2Cl)cc1"
  inhibition at 0.3 µM (%): 82.4

###

tested.system: human SGLT2 (Homo sapiens, UniProt P31639)
Construct: expressed in transfected cells
assay.summary: SGLT2 in vitro assay: Na-dependent 14C-AMG uptake in CHO-K1 cells stably expressing human SGLT2
Assay type: cell-based
test.context: @ 0.3 μM; CHO-K1 cells stably expressing human SGLT2; 14C-AMG uptake; read-out: SGLT2 % Inh @ 0.3 μM
Parameter threshold = 80%. Response is y when inhibition at 0.3 µM meets or exceeds it, else n.

- substance.smiles: "COc1cc(Cl)c(Cc2ccc(C)s2)cc1[C@@H]1O[C@H](CO)C(F)(F)[C@H](O)[C@H]1O"
  class.assignment: "n"
- substance.smiles: "Cc1cc(O)c([C@@H]2O[C@H](CO)C(F)(F)[C@H](O)[C@H]2O)cc1Cc1ccc(C2CC2)cc1"
  class.assignment: "y"
- substance.smiles: "OC[C@H]1O[C@@H](c2cc(Cc3ccc(Cl)s3)c(Cl)cc2O)[C@H](O)[C@@H](O)C1(F)F"
  class.assignment: "y"
- substance.smiles: "OC[C@H]1O[C@@H](c2cc(Cc3ccc(C4CC4)cc3)c(Cl)cc2O)[C@H](O)[C@@H](O)C1(F)F"
  class.assignment: "y"
- substance.smiles: "CCc1ccc(Cc2cc([C@@H]3O[C@H](CO)C(F)(F)[C@H](O)[C@H]3O)c(O)c3c2OCC3)cc1"
  class.assignment: "n"
- substance.smiles: "CCc1cc(O)c([C@@H]2O[C@H](CO)C(F)(F)[C@H](O)[C@H]2O)cc1Cc1ccc(C2CC2)cc1"
  class.assignment: "n"
- substance.smiles: "CCc1ccc(Cc2cc([C@@H]3O[C@H](CO)C(F)(F)[C@H](O)[C@H]3O)c(O)cc2C)cc1"
  class.assignment: "y"
- substance.smiles: "Cc1cc(O)c([C@@H]2O[C@H](CO)C(F)(F)[C@H](O)[C@H]2O)cc1Cc1ccc(-c2cccc(F)n2)s1"
  class.assignment: "n"
- substance.smiles: "OC[C@H]1O[C@@H](c2cc(Cc3ccc4c(c3)OCC4)c(Cl)cc2O)[C@H](O)[C@@H](O)C1(F)F"
  class.assignment: "y"
- substance.smiles: "CCOc1ccc(Cc2cc([C@@H]3O[C@H](CO)C(F)(F)[C@H](O)[C@H]3O)c(O)cc2C)cc1"
  class.assignment: "n"
- substance.smiles: "Cc1cc(O)c([C@@H]2O[C@H](CO)C(F)(F)[C@H](O)[C@H]2O)cc1Cc1ccc(OCF)cc1"
  class.assignment: "y"
- substance.smiles: "Cc1c(Cc2cc3ccccc3s2)cc([C@@H]2O[C@H](CO)C(F)(F)[C@H](O)[C@H]2O)c(O)c1C"
  class.assignment: "y"
- substance.smiles: "Cc1ccc(Cc2cc([C@@H]3O[C@H](CO)C(F)(F)[C@H](O)[C@H]3O)c(O)cc2C)cc1F"
  class.assignment: "y"
- substance.smiles: "COc1cc(O)c([C@@H]2O[C@H](CO)C(F)(F)[C@H](O)[C@H]2O)cc1Cc1ccc(OCF)cc1"
  class.assignment: "n"
- substance.smiles: "[2H]C([2H])(c1ccc2c(c1)OCCO2)c1cc([C@@H]2O[C@H](CO)C(F)(F)[C@H](O)[C@H]2O)ccc1CC"
  class.assignment: "y"
- substance.smiles: "OC[C@H]1O[C@@H](c2cc(Cc3ccc4c(c3)SCCO4)c(Cl)c3c2OCC3)[C@H](O)[C@@H](O)C1(F)F"
  class.assignment: "y"
